Hey, just so you know, these numbers are from patent US20100056524A1.

Biological target: TBK1 (Homo sapiens, UniProt Q9UHD2)
Construct: All protein kinases were of human origin and encoded full length proteins, unless indicated otherwise; His6; made in house; host or cells: insect Sf21 cells
Sequence (Q9UHD2 whole entry): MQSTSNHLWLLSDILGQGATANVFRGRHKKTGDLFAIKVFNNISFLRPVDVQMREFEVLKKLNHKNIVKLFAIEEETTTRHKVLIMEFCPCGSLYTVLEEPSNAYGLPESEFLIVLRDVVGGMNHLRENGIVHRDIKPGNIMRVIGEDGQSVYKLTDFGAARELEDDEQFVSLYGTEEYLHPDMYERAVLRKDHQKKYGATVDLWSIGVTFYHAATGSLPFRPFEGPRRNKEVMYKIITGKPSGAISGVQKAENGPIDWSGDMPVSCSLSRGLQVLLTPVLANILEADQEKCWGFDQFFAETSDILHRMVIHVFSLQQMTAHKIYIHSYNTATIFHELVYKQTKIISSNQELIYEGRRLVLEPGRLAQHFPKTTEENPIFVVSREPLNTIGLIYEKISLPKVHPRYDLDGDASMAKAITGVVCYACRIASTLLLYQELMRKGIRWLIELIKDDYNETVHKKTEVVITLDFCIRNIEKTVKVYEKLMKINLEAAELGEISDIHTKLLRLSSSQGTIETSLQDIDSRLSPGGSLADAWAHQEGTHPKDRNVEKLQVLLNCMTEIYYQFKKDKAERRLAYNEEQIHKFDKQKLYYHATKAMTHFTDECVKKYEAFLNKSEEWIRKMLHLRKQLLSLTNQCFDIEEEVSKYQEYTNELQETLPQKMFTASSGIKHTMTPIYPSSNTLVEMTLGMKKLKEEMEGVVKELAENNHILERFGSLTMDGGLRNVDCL
Assay: TBK1 protein kinase assay ([γ-33P]ATP, P81 filterplates)
Format: biochemical
Conditions: 50 μM ATP; read-out: Potency (TBK1 IC50 potency score)
endpointName: IC50

Use the examples below as a reference point.
In: Report IC50, nothing else, for this compound: CN(C)Cc1ccc(Nc2ncc(C3CC3)c(NCCCNC(=O)C3CCC3)n2)cc1
Out: < 100 nM

In: Report IC50, nothing else, for this compound: O=C(NCCCNc1nc(Nc2cccc(F)c2)ncc1C1CC1)c1cocn1
Out: 100 to 1000 nM

In: Report IC50, nothing else, for this compound: O=C(NCCCNc1nc(Nc2cccc(C(=O)N3CCOCC3)c2)ncc1C1CC1)C1CCC1
Out: < 100 nM

In: Report IC50, nothing else, for this compound: O=C(NCCCNc1nc(Nc2ccc(N3CCOCC3)nc2)ncc1C1CC1)C1CCC1
Out: < 100 nM

In: Report IC50, nothing else, for this compound: CC(C)CN(C)Cc1cccc(Nc2ncc(C3CC3)c(NCCCNC(=O)C3CCC3)n2)c1
Out: < 100 nM

Others:
In: Report IC50, nothing else, for this compound: O=C(NCCCNc1nc(Nc2ccc3c(cnn3C3CC3)c2)ncc1C1CC1)C1CCC1
Out: < 100 nM

In: Report IC50, nothing else, for this compound: O=C(NCCCNc1nc(Nc2ccc3c(c2)CN(CCO)C3=O)ncc1C1CC1)C1CCC1
Out: < 100 nM

In: Report IC50, nothing else, for this compound: CN(C)CCN(C)C(=O)c1cccc(Nc2ncc(C3CC3)c(NCCCNC(=O)C3CCC3)n2)c1
Out: < 100 nM

In: Report IC50, nothing else, for this compound: O=C(NCCc1c[nH]cn1)c1cccc(Nc2ncc(C3CC3)c(NCCCNC(=O)C3CCC3)n2)c1
Out: < 100 nM

In: Report IC50, nothing else, for this compound: CN1CCN(Cc2ccc(Nc3ncc(C4CC4)c(NCCCNC(=O)C4CCC4)n3)cn2)CC1
Out: < 100 nM

In: Report IC50, nothing else, for this compound: O=C(NCCCNc1nc(Nc2ccc(NC3CCOCC3)nc2)ncc1C1CC1)C1CCC1
Out: < 100 nM

In: Report IC50, nothing else, for this compound: O=C(NCCCNc1nc(Nc2ccc(Cn3cncn3)cc2)ncc1C1CC1)C1CCC1
Out: < 100 nM

---

Some compounds, each annotated with its measured IC50.
Target: TBK1 (Homo sapiens)
Construct: All protein kinases were of human origin and encoded full length proteins, unless indicated otherwise; His6; made in house; host or cells: insect Sf21 cells
Test: TBK1 protein kinase assay ([γ-33P]ATP, P81 filterplates)
Assay type: biochemical
Settings: 50 μM ATP; read-out: Potency (TBK1 IC50 potency score)
Counter-ions that a name gives are not always drawn.

In: Report IC50, nothing else, for this compound: CN(C)CCc1ccc(Nc2ncc(C3CC3)c(NCCCNC(=O)C3CCC3)n2)cc1
Out: < 0.1 µM

In: Report IC50, nothing else, for this compound: O=C(NCCCNc1nc(Nc2ccc(OCCN3CCOCC3)nc2)ncc1C1CC1)C1CCC1
Out: < 0.1 µM

In: Report IC50, nothing else, for this compound: CN1CCN(C(=O)c2cccc(Nc3ncc(C4CC4)c(NCCCNC(=O)C4CCC4)n3)c2)CC1
Out: < 0.1 µM

In: Report IC50, nothing else, for this compound: O=C(NCCCNc1nc(Nc2cccnc2)ncc1C1CC1)C1CCC1
Out: < 0.1 µM

Others:
In: Report IC50, nothing else, for this compound: O=C1NCc2ccc(Nc3ncc(C4CC4)c(NCCCNC(=O)C4CCC4)n3)cc21 [Example 88, hydrochloride salt]
Out: < 0.1 µM

In: Report IC50, nothing else, for this compound: O=C(NCCCNc1nc(Nc2ccc3c(cnn3CC3CC3)c2)ncc1C1CC1)C1CCC1
Out: < 0.1 µM

In: Report IC50, nothing else, for this compound: O=C(NCCCNc1nc(Nc2cccc(F)c2)ncc1C1CC1)c1ccco1 [Example 5, trifluoroacetic acid salt]
Out: 0.1 to 1 µM

In: Report IC50, nothing else, for this compound: CN(C)CC(=O)NCCCNc1nc(Nc2cccc(F)c2)ncc1C1CC1 [Example 4, trifluoroacetic acid salt]
Out: 0.1 to 1 µM

In: Report IC50, nothing else, for this compound: O=C(NCCCNc1nc(Nc2cccc(F)c2)ncc1C1CC1)c1ccn[nH]1 [Example 7, trifluoroacetic acid salt]
Out: 0.1 to 1 µM

In: Report IC50, nothing else, for this compound: O=C(NCCCOc1nc(Nc2cccc(F)c2)ncc1C1CC1)C1CCC1
Out: 0.1 to 1 µM
